Origin of values: ChEMBL document CHEMBL1201862

test system: A498; assay: NCI tumour cell line growth inhibition, 48 h
Calls of active or inactive are those of the source. Rule as the data show it: active = GI50 up to about 1.1 µM and inactive = higher.
assay readout: GI50

molecule: CC(C)OP(=O)(OC(C)C)/C(C#N)=C/c1c[nH]c2ccccc12
assay readout: GI50
test value: > 100 µM (inactive)
//
molecule: Nc1ccc(Oc2ccc(C34CC5CC(C3)CC(c3ccc(Oc6ccc(N)c(O)c6)cc3)(C5)C4)cc2)cc1O
assay readout: GI50
test value: 7.66 µM (inactive)
//
molecule: Cc1ccc([N+](=O)[O-])cc1S(=O)(=O)Nc1ccc(C(=O)/C=C/c2cccs2)cc1
assay readout: GI50
test value: 15.3 µM (inactive)
//
molecule: COC(=O)C(Cc1nc2ccccc2nc1O)C(NO)C(=O)Nc1c(Cl)cc([N+](=O)[O-])cc1Cl (stereo unspecified)
assay readout: GI50
test value: 21.4 µM (inactive)
//
molecule: CC(=O)Oc1c(C)c2c(c3ncccc13)OC(C)C2 (stereo unspecified)
assay readout: GI50
test value: 20 µM (inactive)
//
molecule: COc1cc2c3c(c1OC)C1(C=CC(=O)C=C1)CC3N(C(=O)OC(C)(C)C(Cl)(Cl)Cl)CC2 (stereo unspecified)
assay readout: GI50
test value: 16.7 µM (inactive)
//
molecule: CN(C)C[C@H]1CC[C@@H](CN(C)C)C1=O
assay readout: GI50
test value: 49.2 µM (inactive)
//
molecule: CCN1C(NN)=NS(=O)(=O)c2ccccc21
assay readout: GI50
test value: > 100 µM (inactive)
//
molecule: Cn1c(=O)nc2n(-c3cccc(F)c3)c3ccccc3nc-2c1=O
assay readout: GI50
test value: 39.9 µM (inactive)
//
molecule: COc1ccc(C2c3cc(OC)c(OC)cc3C(Cc3ccc([N+](=O)[O-])cc3)C2c2ccc([N+](=O)[O-])cc2)cc1OC (stereo unspecified)
assay readout: GI50
test value: > 100 µM (inactive)
//
molecule: O=C(Nc1ccc(Cl)c(Cl)c1)C1C(=O)N(c2ccc(Cl)c(Cl)c2)C(=O)/C1=N\O (stereo unspecified)
assay readout: GI50
test value: > 100 µM (inactive)
//
molecule: C[C@@H]1C[C@@H](O)[C@@]2(O)C13CC(=O)OC(C3)[C@@H](C)[C@@]2(C)CO (stereo partly specified)
assay readout: GI50
test value: > 100 µM (inactive)
//
molecule: CCOC(=O)c1c(NS(=O)(=O)c2ccc(Br)cc2)sc2c1CCCC2
assay readout: GI50
test value: 9.4 µM (inactive)
//
molecule: N/C(COc1ccc(Cl)cc1)=N\NC(=O)c1ccncc1
assay readout: GI50
test value: 57.9 µM (inactive)
//
molecule: CCCCCCCCC/C=C1\CCC(CN(C)C)C1=O (stereo unspecified)
assay readout: GI50
test value: 2.48 µM (inactive)
//
molecule: NCCCNCCSSC/C=C\CSSCCNCCCN
assay readout: GI50
test value: > 100 µM (inactive)
//
molecule: COc1cc(/C=C2\NC(=O)N(/C=C3\C(=O)Oc4ccccc4C3=O)C2=O)ccc1O
assay readout: GI50
test value: 42.1 µM (inactive)
//
molecule: COC(=O)C1C(=O)N(CCc2c[nH]c3ccccc23)C[C@@H]2CCC(=O)C[C@H]12 (stereo partly specified)
assay readout: GI50
test value: > 100 µM (inactive)
//
molecule: O=C(CN(c1ccccc1)c1ccccc1)N1c2ccccc2C2C=CC=CC21 (stereo unspecified)
assay readout: GI50
test value: 32.4 µM (inactive)
//
molecule: CN1CCN(CCCCN2c3ccccc3Sc3ccc(N=[N+]=[N-])cc32)CC1
assay readout: GI50
test value: 13.8 µM (inactive)
//
molecule: CC1=NN(c2nc(N)nc(CCl)n2)C(C)(C)C1
assay readout: GI50
test value: 30.6 µM (inactive)
//
molecule: CCOC(=O)NC(Nc1ccc(S(=O)(=O)Nc2ccc(OC)nn2)cc1)(C(F)(F)F)C(F)(F)F
assay readout: GI50
test value: 26.3 µM (inactive)
//
molecule: CCOC(=O)Cc1ccc(Nc2nc3cc(C(F)(F)F)ccc3nc2C(=O)OCC)cc1
assay readout: GI50
test value: 32.7 µM (inactive)
//
molecule: O=C(O)CSc1nnc(COc2ccccc2)n1-c1ccccc1
assay readout: GI50
test value: > 100 µM (inactive)
//
molecule: C[C@H]1SC(c2ccc(Cl)cc2Cl)N(NC(=O)c2ccncc2)C1=O (stereo partly specified)
assay readout: GI50
test value: 12.4 µM (inactive)
//
molecule: COc1ccc2cc(Oc3ccc(Cl)cc3)c(=O)oc2c1
assay readout: GI50
test value: 93.5 µM (inactive)
//
molecule: C[C@H]1[C@H](C)N1CC(O)Cn1ccnc1[N+](=O)[O-] (stereo partly specified)
assay readout: GI50
test value: > 100 µM (inactive)
//
molecule: CN(C)/C=C1\CCc2ccc([N+](=O)[O-])cc2C1=O
assay readout: GI50
test value: > 100 µM (inactive)
//
molecule: COC(=O)N1CC[C@@H]2CCC=C(c3cccc4c3OCO4)[C@@H]21
assay readout: GI50
test value: > 100 µM (inactive)
//
molecule: NC(CCC(=O)NC(CSSCCCCS(=O)O)C(=O)NCC(=O)O)C(=O)O (stereo unspecified)
assay readout: GI50
test value: > 100 µM (inactive)
//
molecule: C/C(=N\Nc1ccc([N+](=O)[O-])cc1)C(=O)N(C)Nc1ccccc1
assay readout: GI50
test value: 29 µM (inactive)
//
molecule: Cc1cc(O)nc(NN2C(Cl)C(=O)C2c2ccccc2O)n1 (stereo unspecified)
assay readout: GI50
test value: 12.2 µM (inactive)
//
molecule: CN1CSC(=S)N(c2cccc(C(F)(F)F)c2)C1
assay readout: GI50
test value: 28.3 µM (inactive)
//
molecule: O=C1C=C(NCCc2ccc(O)cc2)C(=O)C=C1NCCc1ccc(O)cc1
assay readout: GI50
test value: > 100 µM (inactive)
//
molecule: CC1C2(C)OC(=N)C(C#N)(C(c3ccccc3)O2)C1(C#N)C#N (stereo unspecified)
assay readout: GI50
test value: 42.1 µM (inactive)
//
molecule: CCC1CCc2c(c(=O)oc3c2cc(OC)c2cccc(OC)c23)C1 (stereo unspecified)
assay readout: GI50
test value: > 100 µM (inactive)
//
molecule: CC(=O)OCC1OC(N2C(=O)[C@@H](Oc3ccccc3)[C@H]2/C=C/c2ccccc2)C(OC(C)=O)C(OC(C)=O)C1OC(C)=O (stereo partly specified)
assay readout: GI50
test value: 72.4 µM (inactive)
//
molecule: CNC1=C(C)C(=O)C(O)=C([C@H](C)CCC=C(C)C)C1=O
assay readout: GI50
test value: 19.5 µM (inactive)
//
molecule: Cc1cc(C)[n+](CCOc2ccc(/C(=C(/Cl)c3ccccc3)c3ccccc3)cc2)c(C)c1.[O-][Cl+3]([O-])([O-])[O-]
assay readout: GI50
test value: 3.87 µM (inactive)
//
molecule: O=C(CC(=O)C1CCOC1=O)C(=O)Nc1cccc(Cl)c1 (stereo unspecified)
assay readout: GI50
test value: > 100 µM (inactive)
//
molecule: CC1=C(C(=O)OC2CC3CCC2(C)C3(C)C)C2Nc3ccccc3N(C)C2O1 (stereo unspecified)
assay readout: GI50
test value: 6.12 µM (inactive)
